Experiment: Inhibition of HIV1 gp41-induced cell-cell fusion between viral protein expressing human HL2/3 cells and TZM-bl target cells preincubated overnight with TZM-bl cells followed by co-incubation with HL2/3 cells for 6 hrs by luciferase reporter gene assay
Property measured: log10 IC50 (log10 of the value in nM)
Would you kindly interpret these values as log10 of IC50 expressed in nM?

// worked examples, log10 IC50 included
1. COC(=O)c1cc(F)cc(Cn2ccc3ccc(-c4ccc5ccn(Cc6cccc(C(=O)O)c6)c5c4)cc32)c1 : 2.90
2. Cn1ccc2ccc(-c3ccc4ccn(Cc5cc(F)cc(C(=O)O)c5)c4c3)cc21 : 3.56
3. COC(=O)c1cc(Cn2ccc3ccc(-c4ccc5ccn(Cc6cccc(C(=O)O)c6)c5c4)cc32)cc(C(=O)OC)c1 : 2.30
4. Nc1ccc(Cn2ccc3ccc(-c4ccc5ccn(Cc6cccc(C(=O)O)c6)c5c4)cc32)cc1 : 3.48
5. Cn1ncc2ccc(-c3ccc4ccn(Cc5cc(F)cc(C(=O)O)c5)c4c3)cc21 : 3.85
6. COc1cccc(CN2CCc3ccc(-c4ccc5ccn(Cc6cccc(C(=O)O)c6)c5c4)cc32)c1 : 3.00

Input line: Would you kindly share the measured log10 IC50 for `COC(=O)c1cccc(Cn2ccc3ccc(-c4ccc5cnn(Cc6cccc(C(=O)O)c6)c5c4)cc32)c1` ?
Output line: 3.45

----------
Assay: Inhibition of HIV1 gp41-induced cell-cell fusion between viral protein expressing human HL2/3 cells and TZM-bl target cells preincubated overnight with TZM-bl cells followed by co-incubation with HL2/3 cells for 6 hrs by luciferase reporter gene assay
pIC50: −log10 of the molar value.
Label criterion met for high-side pIC50 (at or above 6) and criterion not met for low-side pIC50 (below it).

Input line: hey, is pIC50 for this one >= 6? `CN(C(=O)OC(C)(C)C)c1cccc(-c2ccc3ccn(Cc4cccc(C(=O)O)c4)c3c2)c1`
Output line: criterion not met

Input line: // same read-out, input: `Cc1cn(C(=O)OC(C)(C)C)c2cc(-c3ccc4ccn(Cc5cccc(C(=O)O)c5)c4c3)ccc12`
Output line: criterion not met

Input line: What do we get for `COC(=O)c1ccc(Cn2ccc3ccc(-c4ccc5ccn(Cc6cccc(C(=O)O)c6)c5c4)cc32)c(OC)c1` ?
Output line: criterion not met

----------
Assay: Inhibition of HIV1 gp41-induced cell-cell fusion between viral protein expressing human HL2/3 cells and TZM-bl target cells preincubated overnight with TZM-bl cells followed by co-incubation with HL2/3 cells for 6 hrs by luciferase reporter gene assay
Property measured: log10 of IC50 (log10 of the value in µM)
Kindly note that the scale is log10 and the underlying IC50 is in µM.

Some solved entries appear below for comparison.
1) CC(C)(C)OC(=O)Nc1cccc(Cn2ccc3ccc(-c4ccc5ccn(Cc6cccc(C(=O)O)c6)c5c4)cc32)c1 : 0.30
2) COc1cc(Cn2ccc3ccc(-c4ccc5ccn(Cc6cccc(C(=O)O)c6)c5c4)cc32)cc(C(=O)O)c1 : 0.90
3) COc1cccc(Cn2ccc3cc(F)c(-c4ccc5ccn(Cc6cccc(C(=O)O)c6)c5c4)cc32)c1 : 0.54
4) Cn1cc2ccc(-c3ccc4ccn(Cc5cc(F)cc(C(=O)O)c5)c4c3)cc2n1 : 1.45
5) CC(C)(C)OC(=O)n1ccc2ccc(-c3ccc4ccn(Cc5cccc(C(=O)O)c5)c4c3)cc21 : -0.10
6) Cc1ccc(S(=O)(=O)n2ccc3ccc(-c4ccc5ccn(Cc6cccc(C(=O)O)c6)c5c4)cc32)cc1 : 0.11
7) Cn1ccc2ccc(-c3ccc4cnn(Cc5cc(F)cc(C(=O)O)c5)c4c3)cc21 : 0.66

Input line: Given `O=C(O)c1cccc(Cn2ccc3ccc(-c4ccc5ccn(Cc6cccc([N+](=O)[O-])c6)c5c4)cc32)c1` , state its recorded log10 of IC50.
Output line: 0.30

----------
Assay: Inhibition of HIV1 gp41-induced cell-cell fusion between viral protein expressing human HL2/3 cells and TZM-bl target cells preincubated overnight with TZM-bl cells followed by co-incubation with HL2/3 cells for 6 hrs by luciferase reporter gene assay
Just a reminder that ties go to No: only IC50 strictly below 1000 nM counts as Yes.

# count of solved cases: 3
1. CC(C)(C)OC(=O)N1CCC(Cn2ccc3ccc(-c4ccc5ccn(Cc6cccc(C(=O)O)c6)c5c4)cc32)CC1 : No
2. COc1cccc(Cn2ccc3ccc(-c4ccc5c(C)cn(Cc6cccc(C(=O)O)c6)c5c4)cc32)c1 : No
3. Cn1ccc2cc(F)c(-c3ccc4ccn(Cc5cc(F)cc(C(=O)O)c5)c4c3)cc21 : No

Input line: Quick check: does `COC(=O)c1cccc(Cn2ncc3ccc(-c4ccc5ccn(Cc6cccc(C(=O)O)c6)c5c4)cc32)c1` have IC50 under 1000 nM?
Output line: Yes
